Target: BRD4 (Homo sapiens)
Construct: endogenous in cells; host or cells: A375
Assay: BRD4 degradation time course in A375 cells (MSD)
Format: cell-based
Conditions: single concentration at or near maximal activity
Description: To measure the rate of protein degradation, we treated A375 cells with a single concentration of each PROTAC and measured the decrease in target abundance over time as shown in Figs. 4b and5b. MSD electrochemiluminescence signals were subtracted by the average background signal from wells with lysis buffer alone. […] The area of each trapezoid was determined using the equation A = (1/2)(h)(b1 + b2), where h = 1 (distance between points), b1 = POC of the first point and b2 = POC of the second point. […]

[
  {
    "Query smiles": "Cc1ncsc1-c1ccc(CNC(=O)[C@@H]2C[C@@H](O)CN2C(=O)[C@@H](NC(=O)COCCOCCOCc2cn(CCNC(=O)C[C@@H]3N=C(c4ccc(Cl)cc4)c4c(sc(C)c4C)-n4c(C)nnc43)nn2)C(C)(C)C)cc1",
    "Initial Degradation Rate": "0.46 %/min"
  },
  {
    "Query smiles": "Cc1ncsc1-c1ccc(CNC(=O)[C@@H]2C[C@@H](O)CN2C(=O)[C@@H](NC(=O)COCCOCCOCCOCc2cn(CCNC(=O)C[C@@H]3N=C(c4ccc(Cl)cc4)c4c(sc(C)c4C)-n4c(C)nnc43)nn2)C(C)(C)C)cc1",
    "Initial Degradation Rate": "0.21 %/min"
  },
  {
    "Query smiles": "Cc1ncsc1-c1ccc(CNC(=O)[C@@H]2C[C@@H](O)CN2C(=O)[C@@H](NC(=O)COCc2cn(CCNC(=O)C[C@@H]3N=C(c4ccc(Cl)cc4)c4c(sc(C)c4C)-n4c(C)nnc43)nn2)C(C)(C)C)cc1",
    "Initial Degradation Rate": "1.38 %/min"
  },
  {
    "Query smiles": "Cc1ncsc1-c1ccc(CNC(=O)[C@@H]2C[C@@H](O)CN2C(=O)[C@@H](NC(=O)COCCOCc2cn(CCNC(=O)C[C@@H]3N=C(c4ccc(Cl)cc4)c4c(sc(C)c4C)-n4c(C)nnc43)nn2)C(C)(C)C)cc1",
    "Initial Degradation Rate": "0.76 %/min"
  },
  {
    "Query smiles": "Cc1ncsc1-c1ccc(CNC(=O)[C@@H]2C[C@@H](O)CN2C(=O)[C@@H](NC(=O)COCCOCCOCCOCCOCc2cn(CCNC(=O)C[C@@H]3N=C(c4ccc(Cl)cc4)c4c(sc(C)c4C)-n4c(C)nnc43)nn2)C(C)(C)C)cc1",
    "Initial Degradation Rate": "0.08 %/min"
  }
]
